# METHOD_NOTES: chemical genetic growth profiling, strain panel (AID 1159580);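 also: tested at 20 µM; growth read once vehicle control cultures reached saturation at 30 °C; 1 = growth at the plate median or of vehicle wells; lower values mean less growth of the strain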
# REPORTED_CONDITIONS: S. cerevisiae deletion strains, growth OD, locus YCL061C, strain MRC1, hits give low values
Among all 5,500 compounds or so, about 2,000 (36%) were called active. Roughly 18% stayed inconclusive and do not appear here. This is one part of the list.
RESULT_TYPE: normalized growth
No unit in the answer, only the number.

Could you tell me which normalized growth is on file for `Nc1nc(/C(=C/CC(=O)O)C(=O)N[C@@H]2C(=O)N3C(C(=O)O)=CCS[C@H]23)cs1` ?
1.01

Also O=C(O)C1CC(=O)N(Cc2ccccc2Cl)C1 (configuration not stated) , if possible.
1.02

What do we get for NC[C@H]1O[C@H](OC2[C@@H](N)C[C@@H](N)[C@H](O[C@H]3O[C@H](CO)[C@@H](O)[C@H](N)[C@H]3O)[C@H]2O)[C@H](O)[C@@H](O)[C@@H]1O (some centres not stated) ?
0.99

Try the compound CC(C)=CC1C(CO)C1(C)C (configuration not stated)
1.01

How about `NC(=O)c1cc([N+](=O)[O-])cc([N+](=O)[O-])c1` ?
1.01

Please give the result for `COc1cc([N+](=O)[O-])c(OC)cc1SCC(=O)NNC(=O)c1cc(OC)c(OC)c(OC)c1` too.
0.981

Next up: C[C@H]1[C@H](C)CC[C@]2(C(=O)O)CC[C@]3(C)C(=CCC4[C@@]5(C)C[C@@H](O)[C@H](O)[C@@](C)(CO)C5CC[C@]43C)[C@H]12 (some centres not stated)
1.02

Lookup `O=C(Nc1ccc(OC(F)(F)F)cc1)Nc1cccc(C(=O)O)c1`
1.01

And the next one, `COC(=O)Cc1cc(OC)c(OC)cc1[N+](=O)[O-]` ?
1.02

Now the same for `O=C(NC1CCCCC1)N1CCN(c2ncccc2C(F)(F)F)CC1`
0.984

Field entry: `COc1cc(NC(=S)N2CCN(c3ccccc3OC)CC2)c(OC)cc1Cl`
0.984

Can you check C[C@H]1[C@H](C)CC[C@]2(C(=O)O)CC[C@]3(C)C(=CCC4[C@@]5(C)C[C@@H](O)[C@H](O)[C@@](C)(CO)C5[C@H](O)C[C@]43C)[C@H]12 (some centres not stated) next?
0.971

----------
# METHOD_NOTES: chemical genetic growth profiling, strain panel (AID 1159580);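 also: tested at 20 µM; growth read once vehicle control cultures reached saturation at 30 °C; 1 = growth at the plate median or of vehicle wells; lower values mean less growth of the strain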
# REPORTED_CONDITIONS: S. cerevisiae deletion strains, growth OD, locus YJR066W, strain TOR1
The campaign covered roughly 5,500 compounds. About 2,000 (36%) were called active. Not shown: some 18% with an inconclusive outcome. Rule as the data show it: active = normalized growth mostly below about 0.91 (no sharp cut-off); inconclusive = no clear call, values can overlap the other calls; inactive = mostly above about 0.92. The list shows a part of the results.
// classify into active, inactive

// param item: `Cc1cc(Br)c(O)c(/C=N\NC(=S)NC(C)(C)C)c1` ; yields the recorded call
inactive

Consider next the compound CC[C@H]1CN2CCC1C[C@@H]2[C@@H](O)c1ccnc2ccc(OC)cc12 (stereo partly specified) in the same way.
inactive

Please answer likewise for `O=c1c(O)cc([C@H]2Oc3cc(O)cc(O)c3C[C@H]2O)cc2c([C@H]3Oc4cc(O)cc(O)c4C[C@H]3O)cc(O)c(O)c12`
inactive

What do you get for `COC(=O)/C=C1/OC(c2ccc(OC)cc2)=CC1=O` ?
active

Also need `CC(=O)c1ccc(S(=O)(=O)NC(=O)NC2CCCCC2)cc1` , thanks.
inactive

Then what about the compound `CN(C)/C=C1\CSc2ccc(Cl)cc2C1=O` ?
inactive
